# experimentSummary: yeast V-ATPase proton transport modulators, S. cerevisiae, pHLuorin, HTS validation (AID 504600)
# conditionContext: S. cerevisiae pHLuorin cytosolic pH, at 10 µM
The source made the active and inactive calls. No stated cut-off is given here; in the data, active means response above about 15%; inactive means the rest.
# valid calls are active, inactive; nothing else

Consider the worked cases shown below.
# compound, cat
measured = [
    ("Cc1cc(=O)oc(C)c1C(=O)NCCC(C)C", "inactive"),
    ("CC1(C)C2CCC1(C)C(OCC[N+](C)(C)CC(=O)OC1CCCCC1)C2 (configuration not stated)", "inactive"),
    ("Cc1ccc(C(=O)N2CC3(C(C)C)CN(C(=O)c4ccc(C)cc4)CC(C(C)C)(C2)C3=O)cc1", "inactive"),
    ("CC1(C)C2CCC1(C(=O)O)c1nc3ccccc3nc12 (configuration not stated)", "inactive"),
    ("Cc1nnc(SCC(=O)N2CCCC(C(=O)c3ccc(Cl)cc3)C2)o1 (configuration not stated)", "inactive"),
]

Q: # lookup: test call for "OC[C@H]1O[C@@H](n2cnc3c(NC4CCCC4)ncnc32)[C@H](O)[C@@H]1O"
Result: inactive

Q: Please share the test call associated with "CNCCc1ccccn1" .
Result: inactive

Q: Just curious, what result did COc1cc2c(cc1O)CCN(C(=O)c1ccco1)C2C (configuration not stated) get here?
Result: inactive

Q: // param item: Cc1ncc([N+](=O)[O-])n1CC(C)O (configuration not stated) ; yields the recorded call
Result: inactive

Q: Recorded call for "O=C(/C=C/c1ccccc1)/C=C/c1ccccc1" ?
Result: inactive

Q: Call for entry "Cc1oc(/C=N/NC(=O)CC2(C)OCCO2)cc1Br" :
Result: active

Q: Could you kindly confirm the outcome this assay logged for COc1cc2c3c(c1)C1(C(=O)N3C(C)(C)C=C2C)C(C#N)=C(N)Oc2cc(C)oc(=O)c21 (configuration not stated) ?
Result: inactive

Q: Answer briefly: the call reported for CC(C)C[C@H](NC(=O)[C@@H]1Cc2ccccc2CN1C(=O)OC(C)(C)C)C(=O)NCC1CCC(C(=O)O)CC1 (some centres not stated) in this assay.
Result: inactive
